experiment: solvent given as SMILES; conditions: in c1ccc2c(c1)c1ccccc1n2-c1ccc(-c2ccc(-n3c4ccccc4c4ccccc43)cc2)cc1
test readout: emission maximum (nm)
API: value field is a number in nm; no unit string.

Given the compound O=C1c2ccc(N(c3ccccc3)c3ccccc3)cc2C(=O)c2ccc(N(c3ccccc3)c3ccccc3)cc21 , what is its reported emission maximum? 593

Report emission maximum for N#Cc1cc(-n2c3ccccc3c3ccccc32)c(-n2c3ccccc3c3ccccc32)cc1C#N please. 474

Would you kindly share the measured emission maximum for CCCCCCN1C(=O)C(c2ccc(-n3c4ccccc4c4ccccc43)cc2)=C(c2ccc(-n3c4ccccc4c4ccccc43)cc2)C1=O ? 591

State the recorded emission maximum for this entry: O=C1c2ccc(N(c3ccc(-c4ccccc4)cc3)c3ccc(-c4ccccc4)cc3)cc2C(=O)c2ccc(N(c3ccc(-c4ccccc4)cc3)c3ccc(-c4ccccc4)cc3)cc21 603

Returns the measured emission maximum for the input compound. Input: CC(C)(C)c1ccc2c(c1)c1cc(C(C)(C)C)ccc1n2-c1ccc2c(c1)C(=O)c1ccc(-n3c4ccc(C(C)(C)C)cc4c4cc(C(C)(C)C)ccc43)cc1C2=O 575

* * *

assay: solvent given as SMILES; conditions: in O
Property: emission maximum; scope: individual molecules
Response body: numeric value in nm, unit text excluded.

COc1ccc(/C=N/c2cc(C(C)C)c(O)cc2C)cc1 : 440
O=C([O-])c1ccc(C2=c3cc4c5c(c3Oc3c2cc2c6c3CCCN6CCC2)CCC[N+]=5CCC4)c(C(=O)[O-])c1 : 603
COc1ccc2cc([C@H](C)C(=O)O)ccc2c1 : 355.5
O=S(=O)([O-])c1cccc2c(O)cccc12 : 426

Form field: reported emission maximum of O=C(O)CCCCCn1c2ccccc2c(=O)c2cc(Br)ccc21 432

# lookup: emission maximum of CCC/N=C/c1cc2ccc(N(C)C)cc2cc1OC 556

Any idea what emission maximum was measured for N#Cc1ccc(-c2nc(-c3ccccc3)c3ccccn23)cc1 ? 470

Any idea what emission maximum was measured for CC1(C)Nc2ccccc2-c2[nH]c3ccccc3c(=O)c21 ? 552

Look up emission maximum: N#CC(C#N)=Cc1ccc(-c2cccc(-c3nc4ccccc4s3)c2O)s1 646

Which emission maximum value is on record for O=Cc1ccc(-c2cccc(-c3nc4ccccc4s3)c2O)s1 ? 595

Requested field: emission maximum. Item: N[C@@H](Cc1ccc(O)cc1)C(=O)O 300

Item under review: CCN(CC)c1ccc2cc(/C=C/c3cccc[n+]3CCCS(=O)(=O)[O-])c(=O)oc2c1 . Reported emission maximum? 627

May I ask what emission maximum has been recorded for CCCCn1c(-c2ccc(-c3ccc(-c4ccc(-c5n(CCCC)c6ccccc6[n+]5CCCC)cc4)cc3)cc2)[n+](CCCC)c2ccccc21 ? 397

* * *

emission maximum by entry:
test: solvent given as SMILES; conditions: in CNC=O
Reply numerically in nm, unit not repeated.

Study these solved cases before continuing.
O=Cc1cc(O)ccc1O : 479
Fc1ccc(-c2nc3n(c2-c2ccncc2)CCS3)cc1 : 446
COCCOCCOCCOc1cc(C=O)c(OCCOCCOCCOC)cc1C=O : 450

Given the molecule COCCOc1cc(C=O)c(OCCOC)cc1C=O , what is its reported emission maximum? 450

* * *

experiment: solvent given as SMILES; conditions: in CC(C)O
Lab note: anything with emission maximum below 500 nm is marked true; values at 500 nm or higher are marked false.

Field: example entries. Status: answers known.
Cc1c2ccncc2c(C)c2c1[nH]c1ccccc12 : true
CC(=O)Nc1ccc(/C=C2\OC(=O)c3cc(N)ccc32)cc1 : true
CC1=C(Cc2ccccc2)C(C)=[N+]2C1=C(C)c1c(C)c(-c3csc(N4CCOCC4)n3)c(C)n1[B-]2(F)F : false
NS(=O)(=O)c1ccc(N2N=C(c3ccc(O)cc3)CC2c2ccc(Br)cc2)cc1 (stereo not drawn) : true
CN(C)c1ccc(/C=C2\CCCC2=O)cc1 : true
COCCOCCOCCOc1cc(C=O)c(OCCOCCOCCOC)cc1C=O : true
COC1=C/C(=C\C=C2C=CN(Cc3ccc(Br)cc3)C=C2)C=CC1=O : false
Cc1ccc(-c2cc(-c3ccccc3)c3c(N)nc(N4CCCC4)c(C#N)c3n2)cc1 : false

Moving on to another compound below.
# TODO verify emission maximum < 500 nm strictly for this compound: COc1ccc2cc([C@H](C)C(=O)O)ccc2c1 true

* * *

emission maximum overview
assay: solvent given as SMILES; conditions: in ClC(Cl)Cl
Use nm as the unit, but write only the number.

Worked cases, emission maximum given:
c1ccc(-c2ccc(-c3nc(-c4ccccc4)c(N(c4ccccc4)c4ccccc4)[se]3)cc2)cc1 : 468
CN(C)c1ccc(/C=C/c2cc[n+](Cc3cc(C[n+]4ccc(/C=C/c5ccc(N(C)C)cc5)cc4)cc(C[n+]4ccc(/C=C/c5ccc(N(C)C)cc5)cc4)c3)cc2)cc1 : 580
CC1=CC(c2ccc3cc(N(C)C)ccc3c2)=[O+][B-](F)(F)O1 : 552

Consider the molecule CN1C(=CC2=C([O-])C(=CC3=[N+](C)c4ccccc4C3(C)C)C2=O)C(C)(C)c2ccccc21 and give its measured emission maximum. 643

Quick check: emission maximum of CCC[Si](CCC)(CCC)c1cc2ccc3cccc4ccc(c1C(=O)NC(C)(C)C)c2c34 ? 383

So what does the record say about emission maximum for CCCCCCCCOc1ccc(-c2c3c4n(c(-c5ccc(OCCCCCCCC)cc5)c3c3n2[B-](F)(F)[n+]2c(ccc5ccccc52)N=3)[B-](F)(F)[n+]2c(ccc3ccccc32)N=4)cc1 ? 682

Which emission maximum is listed for c1ccc2cc(-c3cc(-c4nccs4)nc(-c4nccs4)c3)ccc2c1 ? 372

Item under review: CCCCCCCCCCCCOc1cc2c3c(ccc4c5c(SCCCCCCCCCCCC)cc6c7c(ccc(c1c34)c75)C(=O)N(C1CCCCC1)C6=O)C(=O)N(C1CCCCC1)C2=O . Reported emission maximum? 640

Given CC(C)(C)c1ccc(C2=c3sc(-c4ccc(C(C)(C)C)cc4)cc3=[N+]3C2=Nc2c(-c4ccc(C(C)(C)C)cc4)c4sc(-c5ccc(C(C)(C)C)cc5)cc4n2[B-]3(F)F)cc1 , state its recorded emission maximum. 793

// emission maximum lookup, key: Cc1ccc(-c2cc(-c3ccc(N(C)C)cc3)c3c(N)nc(N4CCCC4)c(C#N)c3n2)cc1 496

# query: emission maximum of entry CCc1ccc(-n2c3ccccc3c3cc4c(cc32)c2ccccc2n4-c2ccc(CC)s2)s1 405

For CC(=O)O[B-]1(OC(C)=O)OC(/C=C/c2cccc3ccccc23)=CC(/C=C/c2cccc3ccccc23)=[O+]1 , what is its reported emission maximum? 551

Could you tell me which emission maximum is on file for CCCCCCCCC1(CCCCCCCC)c2cc3c(cc2-c2sc(-c4ccc(/C=C5\SC(=S)N(CC)C5=O)c5nsnc45)cc21)C(CCCCCCCC)(CCCCCCCC)c1cc(-c2ccc(/C=C4\SC(=S)N(CC)C4=O)c4nsnc24)sc1-3 ? 728

# query: emission maximum of entry CCCCCCCCCCCCOc1cc2c3cc(OCCCCCCCCCCCC)c(OCCCCCCCCCCCC)cc3c3c(cc(OCCCCCCCCCCCC)c4nc5cc(C#Cc6ccc(OCCCCCCCC)cc6)c(C#Cc6ccc(OCCCCCCCC)cc6)cc5nc43)c2cc1OCCCCCCCCCCCC 657

Please report the recorded emission maximum for COc1ccc2c(-c3nc(-c4cccc(C)c4)no3)cc(=O)oc2c1 . 450

Requested read-out: emission maximum. Entry: N#Cc1nc2c3ccc(N(c4ccccc4)c4ccccc4)cc3c3cc(N(c4ccccc4)c4ccccc4)ccc3c2nc1C#N 639.45

// lookup emission maximum for CC(C)(C)c1ccc2c(c1)c1cc(C(C)(C)C)ccc1n2-c1ccc(C#Cc2cccc(C#Cc3ccc(-n4c5ccc(C(C)(C)C)cc5c5cc(C(C)(C)C)ccc54)cc3)c2)cc1 400

Request the reported emission maximum associated with CC(C)(C)c1ccc2c(c1)c1cc(C(C)(C)C)ccc1n2-c1ccc(C#Cc2ccc(C#Cc3ccc(-n4c5ccc(C(C)(C)C)cc5c5cc(C(C)(C)C)ccc54)cc3)cc2)cc1 419

emission maximum for CSc1ccc(C#Cc2ccc(C#Cc3ccc(C#Cc4ccccc4C#N)cc3C#N)cc2C#N)cc1 ? 455

May I ask what emission maximum has been recorded for CC(=O)OCCN1C(=O)c2cccc3c(Oc4ccc(C#N)cc4)ccc(c23)C1=O ? 410

* * *

experiment: solvent given as SMILES; conditions: in CS(C)=O
Strictly below 600 nm in emission maximum: class 1. Otherwise: class 0.

Cc1c2ccncc2c(C)c2c1[nH]c1ccccc12 : class 1
CN(C)c1ccc(/C=C/c2nc(/C=C/c3ccc(N(C)C)cc3)c3ccccc3n2)cc1 : class 1
COc1cc2sc3cc(OC)c(F)cc3c(=O)c2cc1F : class 1
Cn1c(=O)c(/N=N/c2ccc(Nc3ccc([N+](=O)[O-])cc3S(=O)(=O)O)cc2)c(O)c2ccccc21 : class 0
CCCCCCCCN1c2ccc(C#Cc3ccc(OC)cc3)cc2Sc2cc(C=O)ccc21 : class 1
CN(C)c1ccc(/C=C/c2ccnc(/C=C/c3ccc(N(C)C)cc3)n2)cc1 : class 1
COC1=C/C(=C\C=C2C=CN(Cc3ccc(Br)cc3)C=C2)C=CC1=O : class 0

Consider the additional compound presented here.
is_below(emission maximum, 600 nm) for CN(C)c1ccc(-c2nc3c(c4c2-c2ccccc2CC4)-c2ccccc2CC3)cc1 ? class 1
